Kindly supply the reported pIC50 values for the records listed here.
tested on: Vero; experiment: Antiviral activity in plaque reduction assay was determined against herpes simplex virus type 1 (HSV-1) in Vero cells.; type: functional, cell-based; conditions: Chlorocebus sabaeus
Quick note: pIC50 means taking -log10 of the concentration in moles per liter.

Exercise: Under Vero, report pIC50 for "Nc1nc2c(ncn2COCCO)c(=O)[nH]1"
Key: 5.17

Exercise: Under Vero, report pIC50 for "Nc1nc(O)c2ncn(OCC(CO)CO)c2n1"
Key: 5.23

Exercise: Under Vero, report pIC50 for Nc1nc(O)c2ncn(OCC3COP(=O)(O)OC3)c2n1 (configuration not stated)
Key: 3.74

Exercise: Under Vero, report pIC50 for "Nc1nc(O)c2ncn(OCCCOC(=O)c3ccccc3)c2n1"
Key: 5.07

Exercise: Under Vero, report pIC50 for "CC(=O)OCCCOn1cnc2c(O)nc(N)nc21"
Key: 4.80

Exercise: Under Vero, report pIC50 for "CCCCCC(=O)OCCCOn1cnc2c(O)nc(N)nc21"
Key: 5.68

Exercise: Under Vero, report pIC50 for "Nc1nc(O)c2ncn(OCCCO)c2n1"
Key: 5.68

====

system: Mus musculus; assay: Concentration of BRL 44385 in blood was determined in female BALB/c mice at 15 min a after of dosing of […]; format: ADME, organism-based; settings: in vivo, 0.25 h
Kindly supply the reported concentration values for the records listed here.
Report only the number, with the unit µM understood.

Exercise: Give reported concentration value for "Nc1ncc2ncn(OCCCO)c2n1"
Key: 43

Exercise: Give reported concentration value for "CC(=O)OCC(COC(C)=O)COn1cnc2cnc(N)nc21"
Key: 53

Exercise: Give reported concentration value for "CC(=O)OCCCOn1cnc2cnc(N)nc21"
Key: 45

Exercise: Give reported concentration value for "Nc1ncc2ncn(OCC(COC(=O)c3ccccc3)COC(=O)c3ccccc3)c2n1"
Key: 14

Exercise: Give reported concentration value for "CCCCCC(=O)OCCCOn1cnc2c(O)nc(N)nc21"
Key: 8

Exercise: Give reported concentration value for "Nc1ncc2ncn(OCC(CO)CO)c2n1"
Key: 31

Exercise: Give reported concentration value for "Nc1nc(O)c2ncn(OCC(CO)CO)c2n1"
Key: 2

====

Kindly supply the reported concentration values for the records listed here.
tested on: Mus musculus; assay: Concentration of BRL 44385 in blood was determined in female BALB/c mice at 60 min a after of dosing of […]; type: ADME, organism-based; conditions: in vivo, 1 h
Report only the number, with the unit µM understood.

Exercise: Give reported concentration value for "COc1nc(N)nc2c1ncn2OCC(CO)CO"
Key: 8

Exercise: Give reported concentration value for "CCCCCC(=O)OCCCOn1cnc2c(O)nc(N)nc21"
Key: 3

Exercise: Give reported concentration value for "Nc1ncc2ncn(OCCCOC(=O)c3ccccc3)c2n1"
Key: 4

Exercise: Give reported concentration value for "CCC(=O)OCC(COC(=O)CC)COn1cnc2cnc(N)nc21"
Key: 12

====

system: Mus musculus; assay: Concentration of BRL 44385 in blood was determined in female BALB/c mice at 15 min a after of dosing of […]; format: ADME, organism-based; settings: in vivo, 0.25 h
Kindly supply the reported concentration values for the records listed here.

Exercise: Give reported concentration value for "CC(=O)OCCCOn1cnc2c(O)nc(N)nc21"
Key: 3 µM

Exercise: Give reported concentration value for "COc1nc(N)nc2c1ncn2OCC(CO)CO"
Key: 7 µM

Exercise: Give reported concentration value for "Nc1nc(O)c2ncn(OCCCOC(=O)c3ccccc3)c2n1"
Key: < 2 µM

Exercise: Give reported concentration value for "Nc1nc(N)c2ncn(OCC(CO)CO)c2n1"
Key: < 2 µM

Exercise: Give reported concentration value for "Nc1nc(O)c2ncn(OCCCO)c2n1"
Key: 8 µM

Exercise: Give reported concentration value for "Nc1nc(Cl)c2ncn(OCC(CO)CO)c2n1"
Key: 11 µM

Exercise: Give reported concentration value for "CC(C)Oc1nc(N)nc2c1ncn2OCC(CO)CO"
Key: 29 µM

Exercise: Give reported concentration value for "CCCCCC(=O)OCCCOn1cnc2cnc(N)nc21"
Key: 66 µM

Exercise: Give reported concentration value for "CCC(=O)OCC(COC(=O)CC)COn1cnc2cnc(N)nc21"
Key: 49 µM

Exercise: Give reported concentration value for "CCOc1nc(N)nc2c1ncn2OCCCO"
Key: 6 µM

Exercise: Give reported concentration value for "CCOc1nc(N)nc2c1ncn2OCC(CO)CO"
Key: 37 µM

Exercise: Give reported concentration value for "Nc1ncc2ncn(OCCCOC(=O)c3ccccc3)c2n1"
Key: 46 µM

====

system: MRC5; assay: Antiviral activity in plaque reduction assay was determined against herpes simplex virus type 2 (HSV-2) in MRC-5 cells.; format: functional, cell-based; conditions: Homo sapiens
assay readout: pIC50
Quick note: pIC50 means taking -log10 of the concentration in moles per liter.

Exercise: Give reported pIC50 value for "Nc1nc(O)c2ncn(OCCCOC(=O)c3ccccc3)c2n1"
Key: 5.19

Exercise: Give reported pIC50 value for "Nc1nc(O)c2ncn(OCC(CO)CO)c2n1"
Key: 5.23

Exercise: Give reported pIC50 value for Nc1nc(O)c2ncn(OCC3COP(=O)(O)OC3)c2n1 (configuration not stated)
Key: 3.74

Exercise: Give reported pIC50 value for "CCCCCC(=O)OCCCOn1cnc2c(O)nc(N)nc21"
Key: 6.66

Exercise: Give reported pIC50 value for "Nc1nc2c(ncn2COCCO)c(=O)[nH]1"
Key: 5.60

Exercise: Give reported pIC50 value for "Nc1nc(O)c2ncn(OCCCO)c2n1"
Key: 6.15

Exercise: Give reported pIC50 value for "CC(=O)OCCCOn1cnc2c(O)nc(N)nc21"
Key: 5.39

====

system: Mus musculus; assay: Concentration of BRL 44385 in blood was determined in female BALB/c mice at 60 min after dosing of […]; type: ADME, organism-based; conditions: in vivo, 1 h
assay readout: concentration (µM)
Report only the number, with the unit µM understood.

Exercise: Give reported concentration value for "Nc1ncc2ncn(OCC(COC(=O)c3ccccc3)COC(=O)c3ccccc3)c2n1"
Key: 9

====

Kindly supply the reported concentration values for the records listed here.
test system: Mus musculus; experiment: Concentration of BRL 44385 in blood was determined in female BALB/c mice at 60 min a after of dosing of […]; type: ADME, organism-based; details: in vivo, 1 h
Report only the number, with the unit µM understood.

Exercise: Give reported concentration value for "Nc1nc(O)c2ncn(OCCCO)c2n1"
Key: 5

Exercise: Give reported concentration value for "Nc1nc(Cl)c2ncn(OCC(CO)CO)c2n1"
Key: 5

Exercise: Give reported concentration value for "CC(C)Oc1nc(N)nc2c1ncn2OCC(CO)CO"
Key: 26

Exercise: Give reported concentration value for "CC(=O)OCC(COC(C)=O)COn1cnc2cnc(N)nc21"
Key: 10

Exercise: Give reported concentration value for "CC(=O)OCCCOn1cnc2c(O)nc(N)nc21"
Key: 5

Exercise: Give reported concentration value for "Nc1nc(O)c2ncn(OCC(CO)CO)c2n1"
Key: 2

Exercise: Give reported concentration value for "CCOc1nc(N)nc2c1ncn2OCC(CO)CO"
Key: 15

Exercise: Give reported concentration value for "Nc1ncc2ncn(OCCCO)c2n1"
Key: 3

Exercise: Give reported concentration value for "CCCCCC(=O)OCCCOn1cnc2cnc(N)nc21"
Key: 4

Exercise: Give reported concentration value for "CC(=O)OCCCOn1cnc2cnc(N)nc21"
Key: 3

Exercise: Give reported concentration value for "Nc1ncc2ncn(OCC(CO)CO)c2n1"
Key: 16

====

test system: Mus musculus; test: Concentration of BRL 44385 in blood was determined in female BALB/c mice at 60 min a after of dosing of […]; type: ADME, organism-based; details: in vivo, 1 h
assay readout: concentration

Exercise: Give reported concentration value for "Nc1nc(O)c2ncn(OCCCOC(=O)c3ccccc3)c2n1"
Key: < 2000 nM

Exercise: Give reported concentration value for "CCOc1nc(N)nc2c1ncn2OCCCO"
Key: < 2000 nM

Exercise: Give reported concentration value for "Nc1nc(N)c2ncn(OCC(CO)CO)c2n1"
Key: < 2000 nM
